target: T1, huCD33-R69 stably expressed on Jurkat cells (human, UniProt P20138 18-364); experiment: FACS on cells;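 note: fixed Jurkat lines probed with myc-tagged scFv periplasmic extracts, anti-myc PE flow cytometry, PE MFI fold binned − <2, + 2–10, ++ 10–30, +++ >30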
T1 construct: whole, on cells; >200,000 receptors per cell; also called CD33 WT; CD33^ARG69
T1 sequence (P20138 18-364): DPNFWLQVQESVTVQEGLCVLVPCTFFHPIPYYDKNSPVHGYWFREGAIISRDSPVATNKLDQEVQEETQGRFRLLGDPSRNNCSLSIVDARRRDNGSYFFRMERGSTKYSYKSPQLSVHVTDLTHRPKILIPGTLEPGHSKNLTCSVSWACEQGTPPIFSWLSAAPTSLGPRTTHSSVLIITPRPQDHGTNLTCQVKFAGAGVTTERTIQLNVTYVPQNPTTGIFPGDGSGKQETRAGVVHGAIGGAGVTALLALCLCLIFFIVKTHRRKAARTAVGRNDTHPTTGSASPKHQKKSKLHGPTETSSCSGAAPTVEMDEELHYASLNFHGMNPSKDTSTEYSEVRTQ
reported.property: FACS geometric mean fold change over Jurkat parental

Below are worked cases with known answers.
In: Reported FACS geometric mean fold change over Jurkat parental for Polypeptide No. 89 (scFv, V domains shown, scFv) VH: QVQLVQSGAEVKKPGASVKVSCKASGYTFTNYYMHWVRQAPGQGLEWMGWINPNSGDTNYEQKFQGRVTMTRDTSTSTVYMELSSLRSEDTAVYYCARDDRIQLWVPLVFWGQGTLVTVSS VL: DIQMTQSPSSLSASVGDRVTITCRASQGISNYLAWYQQKPGKAPKLLIYSASNLQSGVPSRFSGSGSGTDFTLTISSLQPEDFATYYCQQSFSTPFTFGQGTKLEIKR : what is it?
Out: 10 to 30 fold

In: Reported FACS geometric mean fold change over Jurkat parental for Polypeptide No. 137 (scFv, V domains shown, scFv) VH: QVQLVQSGAEVKKPGASVKVSCKASGYTFTDYYIHWVRQAPGQGLEWMGMVNPSGGSANYAQKFQGRVTMTRDTSTSTVYMELSSLRSEDTAVYYCAKDSAWQEPYYFDYWGQGTLVTVSS VL: DIQMTQSPSSLSASVGDRVTITCRASQGISSYLAWYQQKPGKAPKLLIYDASNLDTGVPSRFSGSGSGTDFTLTISSLQPEDFATYYCQQSYSTPLTFGGGTKVEIKR : what is it?
Out: > 30 fold

In: Reported FACS geometric mean fold change over Jurkat parental for Polypeptide No. 127 (scFv, V domains shown, scFv) VH: QVQLVQSGAEVKKPGASVKVSCKASGYTFTNHHMHWVRQAPGQGLEWMGMINPSGGSTSYAQKFQGRVTMTRDTSTSTVYMELSSLRSEDTAVYYCARGRPVDIVATYYFDYWGQGTLVTVSS VL: DIQMTQSPSSLSASVGDRVTITCQASQDIRNFLNWYQQKPGKAPKLLIYGASTLHSGVPSRFSGSGSGTDFTLTISSLQPEDFATYYCQQSYSTPLTFGGGTKVEIKR : what is it?
Out: 10 to 30 fold

In: Reported FACS geometric mean fold change over Jurkat parental for Polypeptide No. 128 (scFv, V domains shown, scFv) VH: QVQLVQSGAEVKKPGASVKVSCKASGYTFTNYYIHWVRQAPGQGLEWLGWTNPINGDTGSAQKFQGRVTMTRDTSTSTVYMELSSLRSEDTAVYYCAKEGQLAWADYYYYMDVWGKGTTVTVSS VL: DIQMTQSPSSLSASVGDRVTITCRASQGISSALAWYQQKPGKAPKLLIYAASSLQSGVPSRFSGSGSGTDFTLTISSLQPEDFATYYCQQSYSTPLTFGGGTKVEIKR : what is it?
Out: 10 to 30 fold

Others:
In: Reported FACS geometric mean fold change over Jurkat parental for Polypeptide No. 136 (scFv, V domains shown, scFv) VH: QVQLVQSGAEVKKPGASVKVSCKASGDTLTNHFVHWVRQAPGQGLEWMGWMNPNSGNTGYAQKFQGRVTMTRDTSTSTVYMELSSLRSEDTAVYYCARDPQMGAVAGGFDYWGQGTLVTVSS VL: DIQMTQSPSSLSASVGDRVTITCRASQRIGNWLAWYQQKPGKAPKLLIYAASSLQSGVPSRFSGSGSGTDFTLTISSLQPEDFATYYCQQSYSPPLTFGPGTKVDIKR : what is it?
Out: 10 to 30 fold
